B1: Twister Ribozyme (parent)
chain: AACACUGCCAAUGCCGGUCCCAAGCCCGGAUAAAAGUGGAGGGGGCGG

Variants of: B1
assay summary: self-cleavage, relative activity (ratio to wild type); higher = more cleavage; co-transcriptional
Class membership depends on self-cleavage alone; the intervals are one (below 0.1), two (0.1 to below 0.3), three (0.3 or more)

mutation_descriptor="C14G G38U" label_class=two
mutation_descriptor="G42C G45C" label_class=two
mutation_descriptor="C15U G42A" label_class=two
mutation_descriptor="A34C G45U" label_class=two
mutation_descriptor="C15G C21U" label_class=one
mutation_descriptor="G24U U37G" label_class=one
mutation_descriptor="C21G A30C" label_class=one
mutation_descriptor="A33U G38U" label_class=three
mutation_descriptor="C21A G45A" label_class=two
mutation_descriptor="A35G A40G" label_class=two
mutation_descriptor=C19G label_class=three
mutation_descriptor="A4U A33C" label_class=one
mutation_descriptor="A4G G48C" label_class=three
mutation_descriptor="C14U C26U" label_class=three
mutation_descriptor="G38U C46A" label_class=three
mutation_descriptor="C3G A23G" label_class=two
mutation_descriptor="A23G G47U" label_class=two
mutation_descriptor="A1G G28C" label_class=three
mutation_descriptor="C3A A30U" label_class=two
mutation_descriptor="U6A G7C" label_class=two
mutation_descriptor="A23C G45C" label_class=two
mutation_descriptor="A30C A32G" label_class=three
mutation_descriptor="A4C G28U" label_class=two
mutation_descriptor="U12A A22U" label_class=three
mutation_descriptor="A23U C27G" label_class=one
mutation_descriptor="A10G A11G" label_class=three
mutation_descriptor="A33C U37C" label_class=three
mutation_descriptor="A11G U12G" label_class=three
mutation_descriptor="A22G A33G" label_class=two
mutation_descriptor="A2C C20A" label_class=one
mutation_descriptor=A32U label_class=three
mutation_descriptor="C25G G36C" label_class=one
mutation_descriptor="A2G G29C" label_class=two
mutation_descriptor="U12G C21A" label_class=one
mutation_descriptor="A23C G24C" label_class=two
mutation_descriptor="G28A A40G" label_class=two
mutation_descriptor="C8G C9U" label_class=one
mutation_descriptor="G29C A32G" label_class=three
mutation_descriptor="A1G C26U" label_class=two
mutation_descriptor="C27A G28U" label_class=three
mutation_descriptor="G17A G44C" label_class=three
mutation_descriptor="G29A A35C" label_class=three
mutation_descriptor="A34U G41U" label_class=two
mutation_descriptor="A10G A33G" label_class=three
mutation_descriptor="A4U G45C" label_class=one
mutation_descriptor="A4U C26G" label_class=one
mutation_descriptor="G41A C46G" label_class=three
mutation_descriptor="C26A A40C" label_class=two
mutation_descriptor="A11C A22C" label_class=three
mutation_descriptor="A2U C8A" label_class=one
mutation_descriptor="A22C G39C" label_class=two
mutation_descriptor="G7U A23U" label_class=one
mutation_descriptor="C8G A34U" label_class=three
mutation_descriptor="U6G G42U" label_class=one
mutation_descriptor="C26G G38A" label_class=one
mutation_descriptor="A4G A11U" label_class=three
mutation_descriptor="C14G A22G" label_class=one
mutation_descriptor="A1U A10G" label_class=one
mutation_descriptor="C3A G36C" label_class=one
mutation_descriptor="G13U G29A" label_class=three
mutation_descriptor="G7C A30C" label_class=one
mutation_descriptor="G7C A11U" label_class=one
mutation_descriptor="U31G A40C" label_class=two
mutation_descriptor="A2G A22C" label_class=two
mutation_descriptor="A23C G29U" label_class=two
mutation_descriptor="A22U G24A" label_class=one
mutation_descriptor="A33G G39C" label_class=two
mutation_descriptor="C8G G42A" label_class=two
mutation_descriptor="A4U C5U" label_class=two
mutation_descriptor="C14G G36A" label_class=one
mutation_descriptor="C5G A34G" label_class=three
mutation_descriptor="U6G A11U" label_class=three
mutation_descriptor="G28U U31A" label_class=three
mutation_descriptor="C25G C46G" label_class=two
mutation_descriptor=C46A label_class=three
mutation_descriptor="A2G U37A" label_class=two
mutation_descriptor="G28C G47U" label_class=three
mutation_descriptor="C9G G43C" label_class=two
mutation_descriptor="C15G G41A" label_class=two
mutation_descriptor="C14A U18C" label_class=three
mutation_descriptor="U12C A23G" label_class=three
mutation_descriptor="G24A C26G" label_class=one
mutation_descriptor="G13U G17A" label_class=one
mutation_descriptor="G44A G45C" label_class=three
mutation_descriptor="G24A G29C" label_class=one
mutation_descriptor="U6G C26G" label_class=one
mutation_descriptor="A1G C21A" label_class=two
mutation_descriptor="U18C G29U" label_class=two
mutation_descriptor="C9U C27A" label_class=one
mutation_descriptor="U18C G39C" label_class=two
mutation_descriptor="G24C G42C" label_class=one
